- EXPERIMENT: method code SF-AS, from DOI: 10.1248/cpb.36.1393
- TEST_SETTINGS: pH 7.4
PARAMETER_MEASURED: logD

`[O-][n+]1ccc(Cl)c2ccc(Cl)cc21` yielded logD of 1.85

====

Consider the following compounds; for each one, report its logP.

>  <COMPOUND>
C=CCCN1C=CCC(C(=O)OC2CCC3C4CCc5cc(O)ccc5C4CC23C)=C1 (stereo not drawn)

>  <logP>
3.96

$$$$
>  <COMPOUND>
CC(C)N1C=CCC(C(=O)OC2CCC3C4CCc5cc(O)ccc5C4CC23C)=C1 (stereo not drawn)

>  <logP>
4.6

$$$$

Pending compound:
`CN1C=CCC(C(=O)O[C@H]2CC[C@H]3[C@@H]4CCc5cc(O)ccc5[C@H]4CC[C@]23C)=C1` yielded logP of 4.52
